Source: patent US20210038559A1

Test system: MHC class I expression on COLO 205 cells
assay_remarks: MHC class I expression on COLO 205 cells, 24 hours, flow cytometry (W6/32)
study_conditions: COLO 205, 30 μM, W6/32 staining
# if value of MFI reaches 200, tag rule met; if it stays below, tag rule not met

{"compound": "CCCc1cc(O)c2c(c1)OC(C)(C)[C@@H]1CCC(C)=C[C@@H]21", "qualitative_label": "rule met"}
{"compound": "CCCCCc1cc(O)c(C/C=C(\\C)CCC=C(C)C)c(O)c1", "qualitative_label": "rule not met"}
{"compound": "CCCCCc1cc(O)c2c(c1)OC(C)(CCC=C(C)C)C=C2 (centres unmarked)", "qualitative_label": "rule not met"}
{"compound": "CCCCCc1cc(O)c2c(c1)OC(C)(C)c1ccc(C)cc1-2", "qualitative_label": "rule met"}
